# protocol summary: NCI Yeast Anticancer Drug Screen. Data for the cln2 rad14 strain (AID 165);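 note: 0% = growth equal to vehicle treated cultures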
# assay context: S. cerevisiae cln2 rad14 strain, at 50.0 µM, hits give high values
This is part of a sample that, as a whole, favours compounds with a hit. Of some 79,000 tested, about 15% had one in any assay. Active and inactive are the calls of the source. Cut-off read from the data, not from the text of the source: active = growth inhibition above about 70%; inactive = the rest.
measured property: growth inhibition

As a guide, the following entries are already answered.
compound: O=[N+]([O-])c1cccnc1Sc1ncccn1
growth inhibition: -23.1% (inactive)

compound: CN1NC(c2ccccc2)NN(C)C1=S
growth inhibition: -16.6% (inactive)

compound: Cc1cc(N(CCC#N)CCC#N)ccc1/C=C1N=C(/C=C/c2ccccc2)N(c2ccc(S(N)(=O)=O)cc2)C\1=O
growth inhibition: 0.6% (inactive)

compound: CC(=O)/C(=C/c1ccc(F)cc1)C(=O)CCN(C)C
growth inhibition: 9.55% (inactive)

compound: CC12CCCC=C1N(C=O)c1ccccc12 (configuration not stated)
growth inhibition: 11.6% (inactive)

So what's the measured growth inhibition for this one? "CSc1ccc(NC(=O)Nc2cc(C)ccc2Cl)cc1"
-4.05% (inactive)
